Tested on: Staphylococcus aureus
procedure details: Antibacterial activity against Staphylococcus aureus SA1199B over-expressing NorA by MTT dye based assay
Format: functional
We begin with a simple list: items and their reported log10 MIC.
In plain terms, each number is the log10 of measured MIC in µg/mL.

Lab book: log10 MIC of CC(C)=CCC/C(C)=C/COc1cc(O)cc(O)c1C(=O)c1ccccc1 noted as 0.00

Lab book: log10 MIC of CCn1cc(C(=O)O)c(=O)c2cc(F)c(N3CCNCC3)cc21 noted as 1.51

Lab book: log10 MIC of CCCCCCCCCCCCOc1cc(O)cc(O)c1C(=O)[C@@H](C)CC noted as 1.20

Lab book: log10 MIC of CCC(=O)c1c(O)cc(O)cc1OC/C=C(\C)CCC=C(C)C noted as 0.30

Lab book: log10 MIC of CC[C@H](C)C(=O)c1c(O)cc(O)cc1OC/C=C(\C)CCC=C(C)C noted as 0.00

Lab book: log10 MIC of CCCCCCCCCCOc1cc(O)cc(O)c1C(=O)[C@@H](C)CC noted as 0.30

Lab book: log10 MIC of CC[C@H](C)C(=O)c1c(O)cc(O)cc1OCC=C(C)C noted as 1.20

Lab book: log10 MIC of CC[C@H](C)C(=O)c1c(O)cc(O)cc1OCc1ccccc1 noted as 0.90

###

Tested on: Staphylococcus aureus
procedure details: Antibacterial activity against Staphylococcus aureus SA1199B over-expressing NorA by MTT dye based assay
Assay type: functional
reported endpoint: MIC (µg/mL)
Provide only the numeric value, understood in µg/mL.

// known answers, use as guide
- smiles record: "CCCC(=O)c1c(O)cc(O)cc1OC/C=C(\\C)CCC=C(C)C"
  tested target: "Staphylococcus aureus"
  MIC / µg/mL: 2
- smiles record: "CC[C@H](C)C(=O)c1c(O)cc(O)cc1OCCC(C)C"
  tested target: "Staphylococcus aureus"
  MIC / µg/mL: 2
- smiles record: "CCCCC(=O)c1c(O)cc(O)cc1OC/C=C(\\C)CCC=C(C)C"
  tested target: "Staphylococcus aureus"
  MIC / µg/mL: 1

Lab book: MIC of CC(=O)c1c(O)cc(O)cc1OC/C=C(\C)CCC=C(C)C noted as 8

Lab book: MIC of CN[C@H](CC(C)C)C(=O)N[C@H]1C(=O)N[C@@H](CC(N)=O)C(=O)N[C@H]2C(=O)N[C@H]3C(=O)N[C@H](C(=O)N[C@H](C(=O)O)c4cc(O)cc(O)c4-c4cc3ccc4O)[C@H](O)c3ccc(c(Cl)c3)Oc3cc2cc(c3O[C@@H]2O[C@H](CO)[C@@H](O)[C@H](O)[C@H]2O[C@H]2C[C@](C)(N)[C@H](O)[C@H](C)O2)Oc2ccc(cc2Cl)[C@H]1O noted as 0.25

Lab book: MIC of CCCCCCCCCC(=O)c1c(O)cc(O)cc1OC/C=C(\C)CCC=C(C)C noted as 512

###

We begin with a simple list: items and their reported MIC.
Tested on: Staphylococcus aureus
procedure details: Antibacterial activity against Staphylococcus aureus SA1199B over-expressing NorA by MTT dye based assay
Assay type: functional

Lab book: MIC of CC[C@H](C)C(=O)c1c(O)cc(O)cc1OCCC(C)CCCC(C)C (stereo not given in full) noted as 0.5 to 1 µg/mL

Lab book: MIC of CC[C@H](C)C(=O)c1c(O)cc(O)cc1OC/C=C(\C)CC/C=C(\C)CCC=C(C)C noted as > 512 µg/mL
